test-target: MalE-VirF binding to the pvirB DNA probe (Shigella flexneri, UniProt P0A2T1)
Construct: pMALvirF was constructed by cloning the virF gene into the vector, pMAL-c2x; made in house; host or cells: Shigella flexneri BS103 (pBAD202-MALvirF); initial preparations in E. coli KS1000 (pMALvirF)
Sequence (P0A2T1 whole entry, looked up): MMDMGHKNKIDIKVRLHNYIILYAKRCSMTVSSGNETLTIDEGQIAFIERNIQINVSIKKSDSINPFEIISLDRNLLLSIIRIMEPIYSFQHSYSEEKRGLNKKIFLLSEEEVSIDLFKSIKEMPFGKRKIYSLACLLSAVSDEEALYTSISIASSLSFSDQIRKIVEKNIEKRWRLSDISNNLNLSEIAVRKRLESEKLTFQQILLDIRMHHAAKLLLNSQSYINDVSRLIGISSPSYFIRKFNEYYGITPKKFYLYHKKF
method-summary: Fluorescence polarization (FP) assay, inhibition of MalE-VirF binding to the pvirB DNA probe
assay-context: read-out: % Inhibition at 100 μM
endpoint: inhibition at 100 µM (%)
Please give a number only; it is taken to be in %.

I'd like to know its inhibition at 100 µM. The molecule in question is CCN(CC)CCNc1nc(-c2ccccc2)nc2c1oc1ccccc12
15

And what about the molecule CCN(CC)CCOc1nc(C)nc2c1oc1ccccc12 ?
18

And what about the molecule c1ccc(-c2nc(N3CCN(c4ccccc4)CC3)c3oc4ccccc4c3n2)cc1 ?
2

====

Assignment: determine reported inhibition at 100 µM for the given molecules.
test-target: MalE-VirF binding to the pvirB DNA probe (Shigella flexneri, UniProt P0A2T1)
Construct: pMALvirF was constructed by cloning the virF gene into the vector, pMAL-c2x; made in house; host or cells: Shigella flexneri BS103 (pBAD202-MALvirF); initial preparations in E. coli KS1000 (pMALvirF)
method-summary: Fluorescence polarization (FP) assay, inhibition of MalE-VirF binding to the pvirB DNA probe
assay-context: read-out: % Inhibition at 100 μM
Please give a number only; it is taken to be in %.

Hi! What's the reported inhibition at 100 µM for O=c1[nH]c(-c2ccc(C(F)(F)F)cc2)nc2c1oc1ccccc12 [compound 765345] on MalE-VirF binding to the pvirB DNA probe (Shigella flexneri, UniProt P0A2T1)?
1

And what about the molecule CCN(CC)CCCOc1nc(-c2ccccc2)nc2c1oc1ccccc12 [compound 598089] ?
68

And what about the molecule CCN(CC)CCOc1nc(-c2ccccc2)nc2c1oc1ccccc12 [compound 587109] ?
43

And what about the molecule c1ccc(-c2nc(Oc3cccnc3)c3oc4ccccc4c3n2)cc1 [compound 9660232] ?
17

And what about the molecule CCc1nc(OCCN(C)C)c2oc3ccccc3c2n1 [compound 587469] ?
16

And what about the molecule c1ccc(-c2nc(N3CCOCC3)c3oc4ccccc4c3n2)cc1 [compound 9111063] ?
-5

And what about the molecule CN1CCN(c2nc(-c3ccccc3)nc3c2oc2ccccc23)CC1 [compound 078044] ?
42

And what about the molecule CCN(CC)c1cccc(Oc2nc(-c3ccccc3)nc3c2oc2ccccc23)c1 [compound 9660235] ?
5

And what about the molecule CN(C)CCOc1nc(-c2ccccc2)nc2c1oc1ccccc12 [compound 19615] ?
63
